molecular target: hERG (Homo sapiens, UniProt Q12809); construct: expressed in transfected cells; host or cells: Chinese hamster ovary cells (from the earlier reading's assay name); assay: hERG in Chinese hamster ovary cells; assay type: cell-based
Sequence (Q12809 whole entry): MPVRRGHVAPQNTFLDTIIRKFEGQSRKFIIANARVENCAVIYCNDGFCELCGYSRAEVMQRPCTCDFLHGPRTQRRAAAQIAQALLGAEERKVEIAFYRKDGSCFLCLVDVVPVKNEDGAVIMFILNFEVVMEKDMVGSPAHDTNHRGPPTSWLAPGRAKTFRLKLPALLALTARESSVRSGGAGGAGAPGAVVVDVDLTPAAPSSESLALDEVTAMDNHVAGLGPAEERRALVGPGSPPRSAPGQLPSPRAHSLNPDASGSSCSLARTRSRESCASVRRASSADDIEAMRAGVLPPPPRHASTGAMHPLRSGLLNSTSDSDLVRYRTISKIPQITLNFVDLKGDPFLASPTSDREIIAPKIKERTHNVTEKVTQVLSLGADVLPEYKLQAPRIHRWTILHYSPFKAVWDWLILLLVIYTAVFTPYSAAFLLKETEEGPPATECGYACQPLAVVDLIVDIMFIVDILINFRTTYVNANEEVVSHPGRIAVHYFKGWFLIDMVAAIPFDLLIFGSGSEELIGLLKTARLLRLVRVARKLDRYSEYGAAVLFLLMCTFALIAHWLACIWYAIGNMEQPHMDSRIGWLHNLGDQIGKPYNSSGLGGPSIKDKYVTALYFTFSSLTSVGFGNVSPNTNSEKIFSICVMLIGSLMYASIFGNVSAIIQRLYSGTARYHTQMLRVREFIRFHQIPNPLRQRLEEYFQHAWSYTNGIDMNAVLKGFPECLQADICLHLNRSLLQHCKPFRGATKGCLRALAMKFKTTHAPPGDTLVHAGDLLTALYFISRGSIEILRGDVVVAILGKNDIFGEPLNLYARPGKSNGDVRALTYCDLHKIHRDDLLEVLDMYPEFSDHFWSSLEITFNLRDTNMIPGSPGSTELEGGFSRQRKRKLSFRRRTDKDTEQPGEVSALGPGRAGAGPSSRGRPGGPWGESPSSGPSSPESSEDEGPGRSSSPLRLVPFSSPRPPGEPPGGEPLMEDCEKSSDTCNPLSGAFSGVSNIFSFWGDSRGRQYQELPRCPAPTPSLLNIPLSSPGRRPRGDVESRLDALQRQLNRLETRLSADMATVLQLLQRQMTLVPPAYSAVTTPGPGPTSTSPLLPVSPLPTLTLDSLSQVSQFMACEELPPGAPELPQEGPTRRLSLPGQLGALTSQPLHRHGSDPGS
Quick reference for Selectivity, hERG (μM) CHO among some molecules

Please review the entries below; each comes with its answer.
[[record]]
molecule = "NC1=Nc2ccc(Cl)cc2C1(O)c1ccccc1 (stereo not shown)"
value_reported = ">25 µM"

[[record]]
molecule = "CCOc1ccc(F)cc1C1(O)C(N)=Nc2ccc(Cl)cc21 (racemic)"
value_reported = "21 µM"

[[record]]
molecule = "CCOc1ccc(F)cc1[C@@]1(O)C(N)=Nc2ccc(Cl)cc21 (stereo in doubt)"
value_reported = "36.6 µM"


The record that follows has no Selectivity, hERG (μM) CHO shown yet.
Problem: I have this molecule here, CC(C)Oc1ccccc1C1(O)C(N)=Nc2ccc(Cl)cc21 (stereo not shown) , and I need its recorded Selectivity, hERG (μM) CHO.
Result: 19 µM

Every entry's value here was drawn from patent US8980926B2.
